# Tested on: SNB-75
# testMethodNotes: NCI tumour cell line growth inhibition, 48 h
The source made the active and inactive calls. Rule as the data show it: active = GI50 up to about 1.1 µM and inactive = higher.
Classes used: Y for active, N for inactive

compound: Nc1nc(NCC2(CO)CC(CCc3ccccc3)C2)cc(=O)[nH]1 (configuration not stated)
targetEntity: SNB-75
classLabel: N
--
compound: CC(=O)[C@]1(O)Cc2c(O)c3c(c(O)c2C(OC2OC(C)C(O)C(O)C2F)C1)C(=O)c1ccccc1C3=O (some centres not stated)
targetEntity: SNB-75
classLabel: Y
--
compound: COC(=O)C(C(=O)C(=O)Nc1ccc(OC)cc1[N+](=O)[O-])c1nc2cc(C)c(C)cc2nc1O (configuration not stated)
targetEntity: SNB-75
classLabel: N
--
compound: CCOC(=O)C1=NN(c2ccccc2)C2=CC(C)=NN(C)C(=S)N21
targetEntity: SNB-75
classLabel: N
--
compound: Cc1ccc2c(=O)cc(Cc3cccs3)[nH]c2n1
targetEntity: SNB-75
classLabel: N
--
compound: COCN1C(=O)[C@@H]2CCCN2C(=O)c2ccc(N)cc21
targetEntity: SNB-75
classLabel: N
--
compound: O=C(CN1CCN(Cc2ccccc2)CC1)N1CCCn2c1nc1ccccc1c2=O
targetEntity: SNB-75
classLabel: N
--
compound: COC(=O)[C@]1(C)CCC[C@@]2(C)[C@@H]3C[C@@H]4[C@H]5C[C@@]3(CC[C@@H]21)C[C@@]45C
targetEntity: SNB-75
classLabel: N
--
compound: O=C1c2ccccc2C(=O)c2c(NCC(O)CO)ccc(NCC(O)CO)c21 (configuration not stated)
targetEntity: SNB-75
classLabel: N
--
compound: CC(C(=O)OCc1ccccc1)N(Cc1ccccc1)Cc1ccccc1 (configuration not stated)
targetEntity: SNB-75
classLabel: N
--
compound: Cc1nc(C)c(N2CCN(S(=O)(=O)N(Cc3ccccc3)Cc3ccccc3)CC2)c(O)n1
targetEntity: SNB-75
classLabel: N
--
compound: Nc1n[nH]c2nc3ccc(C(F)(F)F)cc3nc12
targetEntity: SNB-75
classLabel: N
--
compound: S=C(c1c[nH]c2ccccc12)N1CCOCC1
targetEntity: SNB-75
classLabel: Y
--
compound: CC(=O)N(CCc1ccccc1)C(C#N)c1ccccc1 (configuration not stated)
targetEntity: SNB-75
classLabel: N
--
compound: OCCN1CCN(c2nc(N3CCCC3)c3nc(Cl)c(NCc4ccccc4)nc3n2)CC1
targetEntity: SNB-75
classLabel: N
--
compound: COc1ccc(NC(=S)NN=C(C)c2cccc(C(C)=NNC(=S)Nc3ccc(OC)cc3)n2)cc1
targetEntity: SNB-75
classLabel: N
--
compound: OC[C@H]1CCCC1O (some centres not stated)
targetEntity: SNB-75
classLabel: N
--
compound: C=C1CCN2CC[C@@H](OC(=O)/C(C)=C\C)[C@@H]12
targetEntity: SNB-75
classLabel: N
--
compound: CNC(=S)c1nnsc1N
targetEntity: SNB-75
classLabel: N
--
compound: O=[N+]([O-])c1ccc(S(=O)(=O)Cc2ccccc2)c2nonc12
targetEntity: SNB-75
classLabel: N
--
compound: CC(C)OP(=O)(OC(C)C)C(C(F)(F)F)C(F)(F)F
targetEntity: SNB-75
classLabel: N
--
compound: COc1cc(C(=O)O)ccc1OS(=O)(=O)O
targetEntity: SNB-75
classLabel: N
--
compound: C/C(CN1C(=O)c2ccccc2C1=O)=N\NS(=O)(=O)c1ccc(Br)cc1
targetEntity: SNB-75
classLabel: N
--
compound: Cc1ccc(C2=C(c3ccccc3)C(Br)(c3ccccc3)C(c3ccccc3)=C2c2ccc(C)cc2)cc1
targetEntity: SNB-75
classLabel: N
--
compound: COc1cc2c3c(c1OC)Oc1ccc(cc1)CC1c4c(cc(OC)c(OC)c4Oc4ccc(cc4)CC3N(C)CC2)CCN1C (configuration not stated)
targetEntity: SNB-75
classLabel: N
--
compound: O=C1CCC2(c3ccc(Cl)cc3)Nc3ccccc3N12 (configuration not stated)
targetEntity: SNB-75
classLabel: N
--
compound: COc1ccc(Cc2cc(OC)c(OC)c(OC)c2)cc1
targetEntity: SNB-75
classLabel: Y
--
compound: CCOC(=O)c1ccc(Nc2nc3ccccc3n3cccc23)cc1
targetEntity: SNB-75
classLabel: N
--
compound: C1=N\c2ccc(cc2)-c2ccc(cc2)/N=C\c2ccc(cc2)OCc2cccc(n2)COc2ccc/1cc2
targetEntity: SNB-75
classLabel: N
--
compound: OCC1NCC(O)C(O)C1O (configuration not stated)
targetEntity: SNB-75
classLabel: N
--
compound: C/C(=N\Nc1nc2ccccc2o1)c1ncccn1
targetEntity: SNB-75
classLabel: N
--
compound: CSc1c([S+](C)[O-])c2ccccc2n1C (configuration not stated)
targetEntity: SNB-75
classLabel: N
--
compound: Cc1cc(C)c2c(n1)S(=O)(=O)N(CCCN1CCN(c3cccc(C(F)(F)F)c3)CC1)c1c-2nn(C)c1C
targetEntity: SNB-75
classLabel: N
--
compound: O=c1c2cccnc2ncn1CCCN1CCCCC1
targetEntity: SNB-75
classLabel: N
--
compound: C#C/C=C/CC1OC(C(Br)CC)CC(Br)C2CC1O2 (configuration not stated)
targetEntity: SNB-75
classLabel: N
--
compound: CC(=O)NNc1nc(C)c(C(=O)NNC(=O)C(=O)Nc2c(C)cccc2C(C)(C)C)s1
targetEntity: SNB-75
classLabel: N
--
compound: CN(/N=C(\C(=O)O)c1ccccc1)C1=NCCCCN1
targetEntity: SNB-75
classLabel: N
--
compound: CCCCON1C[C@H](OC(C)=O)C(OC(C)=O)[C@H](OC(C)=O)C1 (some centres not stated)
targetEntity: SNB-75
classLabel: N
--
compound: O=P1(O)C=CC2(CCCC2)O1
targetEntity: SNB-75
classLabel: N
--
compound: C=CC[C@@]1([C@H](C=C)COCc2ccc(OC)cc2)CC[C@]2(C)OC(C)(C)[C@@H](c3ccccc3)N2C1=S
targetEntity: SNB-75
classLabel: N
--
compound: O=C1C=C(Br)C(=O)C12CCc1ccccc12 (configuration not stated)
targetEntity: SNB-75
classLabel: N
--
compound: O=C1OCC2OC(=O)c3cc(O)c(O)c(O)c3-c3c(O)c(O)c(O)c4c3C(=O)OC(C2OC(=O)c2cc(O)c(O)c(O)c2-c2c1cc(O)c(O)c2O)C1OC(=O)c2c-4c(O)c(O)c(O)c2[C@@H]1C(O)C(O)C(O)C(O)CO (some centres not stated)
targetEntity: SNB-75
classLabel: Y

----------
# Test system: OVCAR-3
# testMethodNotes: NCI tumour cell line growth inhibition, 48 h
Calls of active or inactive are those of the source. Rule as the data show it: active = GI50 up to about 1.1 µM and inactive = higher.
Classes used: yes (1) for active, no (0) for inactive

molecule: O=S(=O)(O)c1ccc(Nc2ccnc3cc(Cl)ccc23)cc1
targetEntity: OVCAR-3
classLabel: no (0)
//
molecule: COc1ccc(Cn2c3c(cc(OS(=O)(=O)C(F)(F)F)c2=O)Cc2ccccc2-3)cc1
targetEntity: OVCAR-3
classLabel: no (0)
//
molecule: c1ccc2c(c1)NC(C1OC3CCCN3C1C1Nc3ccccc3S1)S2 (stereo not drawn)
targetEntity: OVCAR-3
classLabel: no (0)
//
molecule: CC(=O)OC1CC2(O)C(CCC3(C)C(c4ccc(=O)oc4)CCC32O)C2(C)CCC(O)C=C12 (stereo not drawn)
targetEntity: OVCAR-3
classLabel: yes (1)
//
molecule: CC(=O)c1cc2c(s1)C(=O)c1scc(C(C)=O)c1C2=O
targetEntity: OVCAR-3
classLabel: yes (1)
//
molecule: Cn1c(-c2ccccc2)cc(-c2cccs2)c1-c1ccsc1
targetEntity: OVCAR-3
classLabel: no (0)
//
molecule: CNc1ccc2nc(-c3ccc(OC(=O)N(C)C)cc3)cn2c1
targetEntity: OVCAR-3
classLabel: no (0)
//
molecule: CCCCCCCCCCCCOC1C(COCCN2CCCCC2)OC2OC(C)(C)OC21 (stereo not drawn)
targetEntity: OVCAR-3
classLabel: no (0)
//
molecule: CC(C)NCC(O)c1cc(OCc2ccccc2)c(OCc2ccccc2)cc1NC(=O)CCC(=O)O (stereo not drawn)
targetEntity: OVCAR-3
classLabel: no (0)
//
molecule: CC(=O)N(CCN)CCN
targetEntity: OVCAR-3
classLabel: no (0)
//
molecule: Cc1nc(Cl)c(Cl)c(Cl)n1
targetEntity: OVCAR-3
classLabel: yes (1)
//
molecule: COc1ccc(NC(=O)CC(=O)N2N=C(N(c3ccccc3)c3ccccc3)CC2c2ccccc2)cc1 (stereo not drawn)
targetEntity: OVCAR-3
classLabel: no (0)
//
molecule: C=C(C)C(=O)OC1CC2(C)OC(=CC2=O)C(C)CC2OC(=O)C(=C)C12 (stereo not drawn)
targetEntity: OVCAR-3
classLabel: no (0)
//
molecule: NC(=O)c1c(NC=O)ncn1C1OCC(O)C(O)C1O (stereo not drawn)
targetEntity: OVCAR-3
classLabel: no (0)
//
molecule: CC(=O)NC(Cc1ccccc1)NC(=O)O (stereo not drawn)
targetEntity: OVCAR-3
classLabel: no (0)
//
molecule: CO/S(=N/S(=O)(=O)c1ccccc1)c1ccccc1[N+](=O)[O-] (stereo not drawn)
targetEntity: OVCAR-3
classLabel: no (0)
//
molecule: O=C(Nc1cc(Cl)ccc1Cl)c1cc2ccccc2oc1=O
targetEntity: OVCAR-3
classLabel: no (0)
//
molecule: N#CC(C#N)=Cn1c(=S)[nH]c2ccccc21
targetEntity: OVCAR-3
classLabel: no (0)
//
molecule: O=C(CC(=O)n1nc(-c2ccccc2)c(/N=N/c2ccccc2Cl)c1-c1ccccc1)Nc1ccc(Cl)cc1
targetEntity: OVCAR-3
classLabel: no (0)
//
molecule: COc1ccc2oc(S(=O)(=O)N3CC(CCl)c4ccc(N)cc43)cc2c1 (stereo not drawn)
targetEntity: OVCAR-3
classLabel: yes (1)
//
molecule: O=CNc1ncn[nH]1
targetEntity: OVCAR-3
classLabel: no (0)
//
molecule: S=C(c1c[nH]c2ccccc12)N1CCOCC1
targetEntity: OVCAR-3
classLabel: no (0)
//
molecule: CC1(C)CC2(CC(C)(C)N1O)NC(=O)OC2=O
targetEntity: OVCAR-3
classLabel: no (0)
